Target: T1, CCR7-eGFP stably expressed on 300-19 pre-B cells (human, UniProt P32248 25-378)
T1 chain: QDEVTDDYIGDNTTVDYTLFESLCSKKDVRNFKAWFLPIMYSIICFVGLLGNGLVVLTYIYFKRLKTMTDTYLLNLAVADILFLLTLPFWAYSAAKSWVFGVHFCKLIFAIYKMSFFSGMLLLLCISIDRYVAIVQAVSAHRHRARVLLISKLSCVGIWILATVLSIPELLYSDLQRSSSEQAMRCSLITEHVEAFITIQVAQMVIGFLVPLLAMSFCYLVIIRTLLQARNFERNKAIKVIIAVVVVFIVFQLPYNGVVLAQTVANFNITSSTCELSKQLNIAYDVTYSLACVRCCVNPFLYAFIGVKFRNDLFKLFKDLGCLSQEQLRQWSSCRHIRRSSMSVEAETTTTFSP
Experiment: FACS; 37°C, competition with 25 nM CCL19-Dy649P1 (printed as EC50; partial inhibition)
Readout Label: IC50

Ask: Report IC50, nothing else, for this binder: CXCL14 (synthetic, unlabeled human CXCL14) (ligand) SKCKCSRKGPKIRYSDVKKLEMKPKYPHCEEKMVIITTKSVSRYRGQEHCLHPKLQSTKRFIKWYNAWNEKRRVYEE
Result: 9.2 nM
